Assay: Cell Viability - H-4-II-E (AID 543);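 further: cells exposed to compound for 40 hours; nearly all actives have a fitted effect of over 35% in size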
Conditions: H-4-II-E rat hepatoma viability; series mostly up to 92.2 µM
Results filed as inconclusive are left out. Active and inactive are the calls of the source. The call rests on the fitted dose curve; in most records, active means well fitted cell-killing curve with a large enough effect; inconclusive means small, poorly fitted or top-dose-only effect; inactive means flat fitted curve, though single readings scatter.

>  <Smiles Data>
C[C@H]1O[C@@H](O[C@H]2[C@@H](O)C[C@H](O[C@H]3[C@@H](O)C[C@H](O[C@H]4CC[C@@]5(C)[C@H](CC[C@@H]6[C@@H]5C[C@@H](O)[C@]5(C)[C@@H](C7=CC(=O)OC7)CC[C@]65O)C4)O[C@@H]3C)O[C@@H]2C)C[C@H](O)[C@@H]1O

>  <outcome>
inactive

$$$$
>  <Smiles Data>
NCCN

>  <outcome>
inactive

$$$$
>  <Smiles Data>
O=P(O)(O)O

>  <outcome>
inactive

$$$$

====

Experiment: Cell Viability - NIH 3T3 (AID 541);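 further: cells exposed to compound for 40 hours; nearly all actives have a fitted effect of over 25% in size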
Conditions: NIH 3T3 cell viability, qHTS; at 92.2 µM (top of the series)
Records with an inconclusive call do not appear. The source made the active and inactive calls. The call rests on the fitted dose curve; in most records, active means well fitted cell-killing curve with a large enough effect; inconclusive means small, poorly fitted or top-dose-only effect; inactive means flat fitted curve, though single readings scatter.
Your reply should match one of these outcome classes. active, inactive

>  <Molecule>
C=C1C(CCl)(CCl)C2(Cl)C(Cl)C(Cl)C1(Cl)C2(Cl)Cl (stereo not drawn)

>  <Qualitative Label>
active

$$$$
>  <Molecule>
CC1=CC(=O)NS(=O)(=O)O1

>  <Qualitative Label>
inactive

$$$$

// outcome(item) with item = CCOC(C)OCC
inactive

====

Tested on: TAB113
Test: qHTS profiling for inhibitors of Plasmodium falciparum proliferation (AID 504749); further: nearly all actives have a fitted effect of over 60% in size
Settings: P. falciparum in erythrocytes, SYBR Green DNA, 72 h; series mostly up to 28.7 µM
Inconclusive results are not listed. The source made the active and inactive calls. The call rests on the fitted dose curve; in most records, active means well fitted inhibition curve with a large enough effect; inconclusive means small, poorly fitted or top-dose-only effect; inactive means flat fitted curve, though single readings scatter.
Your reply should match one of these outcome classes. active, inactive

>  <Compound>
CC(=O)Nc1c(I)c(C(=O)O)c(I)c(N(C)C(C)=O)c1I

>  <Qualitative Label>
inactive

$$$$

// outcome(item) with item = CCN(CC)CCCC(C)Nc1cc(/C=C/c2ccccc2Cl)nc2cc(Cl)ccc12 (stereo not drawn)
active

// outcome(item) with item = CCCCCCCCCC(=O)NO
inactive

====

Test system: CP185
Experiment: qHTS profiling for inhibitors of Plasmodium falciparum proliferation (AID 504749); further: nearly all actives have a fitted effect of over 60% in size
Settings: P. falciparum in erythrocytes, SYBR Green DNA, 72 h; series mostly up to 28.7 µM
Results filed as inconclusive are left out. Active and inactive are the calls of the source. The call rests on the fitted dose curve; in most records, active means well fitted inhibition curve with a large enough effect; inconclusive means small, poorly fitted or top-dose-only effect; inactive means flat fitted curve, though single readings scatter.
Your reply should match one of these outcome classes. t (active), f (inactive)

Example cases with answers are listed next.
>  <Smiles Data>
CC(=O)Nc1c(I)c(C(=O)O)c(I)c(N(C)C(C)=O)c1I

>  <Qualitative Label>
f

$$$$
>  <Smiles Data>
CCCCCCOC(=O)c1cccnc1

>  <Qualitative Label>
f

$$$$
>  <Smiles Data>
CCN(CC)CCC(=O)N1c2ccccc2Sc2ccc(C(F)(F)F)cc21

>  <Qualitative Label>
f

$$$$

// outcome(item) with item = CO[C@H]1C[C@@H]2CC[C@@H](C)[C@@](O)(O2)C(=O)C(=O)N2CCCC[C@H]2C(=O)O[C@H]([C@H](C)C[C@@H]2CC[C@@H](OC(=O)C(C)(CO)CO)[C@H](OC)C2)CC(=O)[C@H](C)/C=C(\C)[C@@H](O)[C@@H](OC)C(=O)[C@H](C)C[C@H](C)/C=C/C=C/C=C/1C
f

// outcome(item) with item = CNC(=O)OCc1cccc(COC(=O)NC)n1
f

// outcome(item) with item = Cc1c(Cl)cccc1Nc1ncccc1C(=O)O
f

// outcome(item) with item = C[Se]CC[C@H](N)C(=O)O
f

// outcome(item) with item = CNC(=O)c1c(I)c(C(=O)NCC(=O)Nc2c(I)c(C(=O)O)c(I)c(C(=O)NCCO)c2I)c(I)c(N(C)C(C)=O)c1I
f

// outcome(item) with item = C[C@H](CCCC(C)(C)O)[C@H]1CC[C@H]2[C@@H]3CC=C4C[C@@H](O)CC[C@]4(C)[C@H]3CC[C@]12C
f

====

Test system: CP269
Assay: qHTS profiling for inhibitors of Plasmodium falciparum proliferation (AID 504749); further: nearly all actives have a fitted effect of over 60% in size
Conditions: P. falciparum in erythrocytes, SYBR Green DNA, 72 h; series mostly up to 28.7 µM
Results filed as inconclusive are left out. The source made the active and inactive calls. The call rests on the fitted dose curve; in most records, active means well fitted inhibition curve with a large enough effect; inconclusive means small, poorly fitted or top-dose-only effect; inactive means flat fitted curve, though single readings scatter.
Your reply should match one of these outcome classes. active, inactive

Example cases with answers are listed next.
>  <Compound>
Cc1cc(C)c(NC(=O)C[C@H](CC(=O)O)c2cccc3ccccc23)c(C(=O)N2CCC3(CCCC3)CC2)c1

>  <System Tested>
CP269

>  <Qualitative Label>
inactive

$$$$
>  <Compound>
CC1CC(O)CC(C)(C)C1 (stereo not drawn)

>  <System Tested>
CP269

>  <Qualitative Label>
inactive

$$$$
>  <Compound>
Cc1ccc(S(=O)(=O)O)cc1C

>  <System Tested>
CP269

>  <Qualitative Label>
inactive

$$$$

We now examine a further compound.
// outcome(item) with item = CCCCCCOC(=O)c1cccnc1
inactive

====

Assay: Cell Viability - LYMP2-022 (AID 987);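 further: cells exposed to compound for 24 hr; nearly all actives have a fitted effect of over 55% in size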
Settings: LYMP2-022 lymphoblastoid cell viability; series mostly up to 92.2 µM
Source text: NIH Chemical Genomics Center [NCGC] NIH Molecular Libraries Screening Centers Network [MLSCN] National Institutes of Environmental Health Sciences [NIEHS] National Toxicology Program [NTP] We have developed a 1536-well cell-based assay for quantitative high throughput screening (qHTS) against a number of cell lines to determine in vitro cytotoxicity of small molecules. […] 8. Detection; Luminescence; Viewlux plate reader […]
Results filed as inconclusive are left out. The source made the active and inactive calls. Calls follow the shape of the dose curve; as a rule, active = well fitted cell-killing curve with a large enough effect; inconclusive = small, poorly fitted or top-dose-only effect; inactive = flat fitted curve, though single readings scatter.
Your reply should match one of these outcome classes. active, inactive

>  <Molecule>
CC1=CCC2CC1C2(C)C (stereo not drawn)

>  <Qualitative Label>
inactive

$$$$
>  <Molecule>
c1ccc2ccccc2c1

>  <Qualitative Label>
inactive

$$$$
>  <Molecule>
C[C@H](CCC(=O)O)[C@H]1CC[C@H]2[C@@H]3[C@H](O)C[C@@H]4C[C@H](O)CC[C@]4(C)[C@H]3C[C@H](O)[C@]12C

>  <Qualitative Label>
inactive

$$$$
>  <Molecule>
C/C=C/C=C/C(=O)O

>  <Qualitative Label>
inactive

$$$$
>  <Molecule>
Nc1nccs1

>  <Qualitative Label>
inactive

$$$$
>  <Molecule>
CC1=CC(=O)NS(=O)(=O)O1

>  <Qualitative Label>
inactive

$$$$
>  <Molecule>
CO/N=C(/C(=O)N[C@@H]1C(=O)N2C(C(=O)O)=C(COC(N)=O)CS[C@H]12)c1ccco1

>  <Qualitative Label>
inactive

$$$$
>  <Molecule>
Oc1ccc(/C=C/c2cc(O)cc(O)c2)cc1

>  <Qualitative Label>
inactive

$$$$

// outcome(item) with item = NC(N)=O
inactive

// outcome(item) with item = OCC(O)CO
inactive

// outcome(item) with item = C[C@H]1O[C@@H](O[C@H]2[C@@H](O)C[C@H](O[C@H]3[C@@H](O)C[C@H](O[C@H]4CC[C@@]5(C)[C@H](CC[C@@H]6[C@@H]5C[C@@H](O)[C@]5(C)[C@@H](C7=CC(=O)OC7)CC[C@]65O)C4)O[C@@H]3C)O[C@@H]2C)C[C@H](O)[C@@H]1O
active

// outcome(item) with item = CC/C=C\C/C=C\C/C=C\CCCCCCCC(=O)O
active

// outcome(item) with item = CC[C@H]1OC(=O)[C@H](C)[C@@H](O[C@H]2C[C@@](C)(OC)[C@@H](O)[C@H](C)O2)[C@H](C)[C@@H](O[C@@H]2O[C@H](C)C[C@H](N(C)C)[C@H]2O)[C@](C)(O)C[C@@H](C)CN(C)[C@H](C)[C@@H](O)[C@]1(C)O
inactive

====

Test system: CP256
Assay: qHTS profiling for inhibitors of Plasmodium falciparum proliferation (AID 504749); further: nearly all actives have a fitted effect of over 60% in size
Conditions: P. falciparum in erythrocytes, SYBR Green DNA, 72 h; series mostly up to 28.7 µM
Records with an inconclusive call do not appear. The source made the active and inactive calls. Calls come from the whole dose curve; as a rule, active = well fitted inhibition curve with a large enough effect; inconclusive = small, poorly fitted or top-dose-only effect; inactive = flat fitted curve, though single readings scatter.
Your reply should match one of these outcome classes. active, inactive

Example cases with answers are listed next.
>  <Compound>
O=C(O)[C@H]1C(=CCO)O[C@H]2CC(=O)N12

>  <System Tested>
CP256

>  <Qualitative Label>
inactive

$$$$
>  <Compound>
CC(=O)Nc1ccc(OC(=O)c2ccccc2O)cc1

>  <System Tested>
CP256

>  <Qualitative Label>
inactive

$$$$
>  <Compound>
Cc1ccc(S(=O)(=O)NCl)cc1

>  <System Tested>
CP256

>  <Qualitative Label>
inactive

$$$$
>  <Compound>
Nc1nc(=O)n([C@@H]2CS[C@H](CO)O2)cc1F

>  <System Tested>
CP256

>  <Qualitative Label>
inactive

$$$$
>  <Compound>
O=C(O)C1=C(CSc2nnnn2CS(=O)(=O)O)CS[C@@H]2[C@H](NC(=O)[C@H](O)c3ccccc3)C(=O)N12

>  <System Tested>
CP256

>  <Qualitative Label>
inactive

$$$$

// outcome(item) with item = FCOC(C(F)(F)F)C(F)(F)F
inactive

// outcome(item) with item = C/C(=C\C(=O)OCCCCCCCCC(=O)O)C[C@@H]1OC[C@H](C[C@@H]2O[C@H]2[C@@H](C)[C@H](C)O)[C@@H](O)[C@H]1O
active

// outcome(item) with item = c1ccc2c(c1)OCC(CN1CCCCC1)O2 (centres undefined)
inactive

// outcome(item) with item = CC(C)(C)c1ccc2c(S(=O)(=O)O)c(C(C)(C)C)ccc2c1
inactive

// outcome(item) with item = CC(C)(CO)[C@@H](O)C(=O)NCCC(=O)NCCSSCCNC(=O)CCNC(=O)[C@H](O)C(C)(C)CO
inactive

// outcome(item) with item = C=C1C(CCl)(CCl)C2(Cl)C(Cl)C(Cl)C1(Cl)C2(Cl)Cl (centres undefined)
active

// outcome(item) with item = O=C(/C=C/c1cccc(F)c1)NC1CC1
inactive

// outcome(item) with item = CCCCO
inactive
